Values compiled from ChEMBL document CHEMBL1139568.

Consider molecules characterized by their Ki with Carbonic anhydrase 9 (Homo sapiens, UniProt Q16790).
parameterMeasured: Ki (nM)

1. Cc1ccc2occ(/C=N/c3ccc(S(N)(=O)=O)cc3)c(=O)c2c1 ... 48
2. Cc1ccc2occ(/C=N/c3cc(C(F)(F)F)c(S(N)(=O)=O)cc3S(N)(=O)=O)c(=O)c2c1 ... 32
3. NS(=O)(=O)c1ccc(C/N=C/c2coc3ccccc3c2=O)cc1 ... 32
4. NS(=O)(=O)c1ccc(CC/N=C/c2coc3ccccc3c2=O)cc1 ... 26
5. Cc1ccc2occ(/C=N/CCc3ccc(S(N)(=O)=O)cc3)c(=O)c2c1 ... 37

* * *

Consider compounds characterized by their pKi with Carbonic anhydrase 1 (Homo sapiens, UniProt P00915).
Sequence (P00915 whole entry): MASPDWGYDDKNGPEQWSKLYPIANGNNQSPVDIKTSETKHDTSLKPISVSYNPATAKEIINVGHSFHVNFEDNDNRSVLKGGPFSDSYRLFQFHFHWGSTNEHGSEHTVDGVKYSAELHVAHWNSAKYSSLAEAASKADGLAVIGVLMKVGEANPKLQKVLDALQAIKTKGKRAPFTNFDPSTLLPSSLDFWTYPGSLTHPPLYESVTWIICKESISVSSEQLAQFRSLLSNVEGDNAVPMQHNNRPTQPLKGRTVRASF
pKi: −log10 of the molar value.
parameterMeasured: pKi

1) N=C(N)NS(=O)(=O)c1ccc(/N=C/c2coc3ccccc3c2=O)cc1 ... < 6.00
2) Cc1ccc2occ(/C=N/c3ccc(S(=O)(=O)N=C(N)N)cc3)c(=O)c2c1 ... < 6.00

* * *

biological target: Carbonic anhydrase 2 (Homo sapiens)
pKi: −log10 of the molar value.
parameterMeasured: pKi

1) Cc1ccc2occ(/C=N/c3ccc(S(=O)(=O)N=C(N)N)cc3)c(=O)c2c1 ... < 6.00

* * *

biological target: Carbonic anhydrase 9 (Homo sapiens, UniProt Q16790); settings: tested as the Zn salt or complex
Description: Inhibition constant against human carbonic anhydrase IX
pKi: −log10 of the molar value.
Documented pKi across a set of molecules
parameterMeasured: pKi

1. Cc1ccc2occ(CNCc3ccc(S(N)(=O)=O)cc3)c(=O)c2c1 ... 7.85
2. Cc1ccc2occ(CNc3ccc(S(N)(=O)=O)cc3)c(=O)c2c1 ... 7.82
3. Cc1ccc2occ(/C=N/CCc3ccc(S(N)(=O)=O)cc3)c(=O)c2c1 ... 8.09
4. Cc1ccc2occ(CNCCc3ccc(S(N)(=O)=O)cc3)c(=O)c2c1 ... 7.92
5. Cc1ccc2occ(/C=N/c3ccc(S(N)(=O)=O)cc3)c(=O)c2c1 ... 8.17
6. NS(=O)(=O)c1ccc(CCNCc2coc3ccccc3c2=O)cc1 ... 8.14
7. NS(=O)(=O)c1ccc(NCc2coc3ccccc3c2=O)cc1 ... 8.00
8. NS(=O)(=O)c1ccc(C/N=C/c2coc3ccccc3c2=O)cc1 (stereo in doubt; 21) ... 8.20
9. NS(=O)(=O)c1ccc(CNCc2coc3ccccc3c2=O)cc1 ... 8.09

* * *

Consider compounds characterized by their Ki with Carbonic anhydrase 12 (Homo sapiens, UniProt O43570).
Sequence (O43570 whole entry): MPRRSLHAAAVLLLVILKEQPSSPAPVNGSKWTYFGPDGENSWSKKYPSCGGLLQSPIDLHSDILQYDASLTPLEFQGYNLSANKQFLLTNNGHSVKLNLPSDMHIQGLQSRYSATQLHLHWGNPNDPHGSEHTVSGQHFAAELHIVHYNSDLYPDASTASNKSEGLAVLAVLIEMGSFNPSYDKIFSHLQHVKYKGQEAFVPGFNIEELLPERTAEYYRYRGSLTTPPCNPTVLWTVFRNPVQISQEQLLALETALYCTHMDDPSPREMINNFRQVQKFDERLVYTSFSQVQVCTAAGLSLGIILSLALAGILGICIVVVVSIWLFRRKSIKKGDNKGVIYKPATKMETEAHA
parameterMeasured: Ki

1. N=C(N)NS(=O)(=O)c1ccc(/N=C/c2coc3ccccc3c2=O)cc1 ... > 1 µM
2. Cc1ccc2occ(/C=N/c3ccc(S(=O)(=O)N=C(N)N)cc3)c(=O)c2c1 ... > 1 µM
